Assay Target: Serotonin 7 receptor (5-HT7R) (Homo sapiens)
Sequence (P34969 whole entry): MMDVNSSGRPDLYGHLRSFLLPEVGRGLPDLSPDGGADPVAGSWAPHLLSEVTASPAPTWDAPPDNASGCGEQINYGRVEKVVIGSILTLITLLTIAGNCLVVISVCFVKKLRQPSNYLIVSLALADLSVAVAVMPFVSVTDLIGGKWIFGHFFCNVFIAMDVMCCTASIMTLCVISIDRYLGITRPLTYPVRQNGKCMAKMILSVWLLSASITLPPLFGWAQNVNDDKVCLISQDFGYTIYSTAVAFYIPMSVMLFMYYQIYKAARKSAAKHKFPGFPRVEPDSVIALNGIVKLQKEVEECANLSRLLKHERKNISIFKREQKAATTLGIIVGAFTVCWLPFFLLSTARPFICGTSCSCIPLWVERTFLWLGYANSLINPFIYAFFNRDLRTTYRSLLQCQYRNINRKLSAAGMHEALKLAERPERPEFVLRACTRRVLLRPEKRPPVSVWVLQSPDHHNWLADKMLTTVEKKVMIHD
Assay Endpoint: pKi
Value format note: pKi is -log10 of concentration (mol/L); just state the number.

Form field pKi for item `CCN(CC)C(=O)[C@@H]1C=C2c3cccc4[nH]c(Br)c(c34)C[C@H]2N(C)C1` on Serotonin 7 receptor (5-HT7R) (Homo sapiens): 8.42

---

Assay Target: CHRM2 (M2 muscarinic receptor) (Homo sapiens, UniProt P08172)
Sequence (P08172 whole entry): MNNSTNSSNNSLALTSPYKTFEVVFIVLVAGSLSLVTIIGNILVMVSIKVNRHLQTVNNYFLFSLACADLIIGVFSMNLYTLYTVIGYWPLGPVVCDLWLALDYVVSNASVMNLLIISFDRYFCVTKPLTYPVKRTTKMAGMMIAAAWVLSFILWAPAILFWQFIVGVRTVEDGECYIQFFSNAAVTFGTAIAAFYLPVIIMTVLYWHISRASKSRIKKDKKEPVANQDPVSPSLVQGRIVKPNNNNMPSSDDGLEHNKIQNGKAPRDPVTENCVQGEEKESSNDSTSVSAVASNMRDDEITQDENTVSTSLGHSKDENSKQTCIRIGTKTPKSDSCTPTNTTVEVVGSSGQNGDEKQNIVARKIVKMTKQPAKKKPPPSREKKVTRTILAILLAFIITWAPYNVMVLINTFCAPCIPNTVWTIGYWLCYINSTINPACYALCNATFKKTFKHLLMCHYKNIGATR
Protocol Description: BRET-based G protein dissociation assay
Type: cell-based
Assay Endpoint: pEC50
The value called pEC50 is obtained by taking minus log10 of the concentration in mol/L.

Reported pEC50 for `CCN(CC)C(=O)[C@@H]1C=C2c3cccc4[nH]c(Br)c(c34)C[C@H]2N(C)C1` was 6.67

---

Assay Target: UniProt:P18825
Sequence (P18825 1-462): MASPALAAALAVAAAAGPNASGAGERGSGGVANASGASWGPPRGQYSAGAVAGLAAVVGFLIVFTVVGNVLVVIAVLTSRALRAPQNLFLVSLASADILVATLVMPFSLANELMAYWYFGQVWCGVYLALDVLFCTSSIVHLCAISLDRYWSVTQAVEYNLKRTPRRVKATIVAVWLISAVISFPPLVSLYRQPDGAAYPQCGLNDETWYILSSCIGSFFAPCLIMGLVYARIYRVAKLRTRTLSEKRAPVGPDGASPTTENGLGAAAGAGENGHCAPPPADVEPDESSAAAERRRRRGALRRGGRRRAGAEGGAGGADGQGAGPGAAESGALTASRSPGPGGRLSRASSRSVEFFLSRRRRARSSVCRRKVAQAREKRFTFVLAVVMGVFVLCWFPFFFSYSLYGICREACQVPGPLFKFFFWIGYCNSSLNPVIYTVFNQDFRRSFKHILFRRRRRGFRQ
Protocol Description: Functional assay in HEK-293 cells (cAMP)
Assay Endpoint: EC50 (nM)
// units = nM; emit number, no label

UniProt:P18825 data for `CCN(CC)C(=O)[C@@H]1C=C2c3cccc4[nH]c(Br)c(c34)C[C@H]2N(C)C1` ; its EC50: 730

---

Assay Target: CHRM1 (M1 muscarinic receptor) (Homo sapiens)
Sequence (P11229 1-460): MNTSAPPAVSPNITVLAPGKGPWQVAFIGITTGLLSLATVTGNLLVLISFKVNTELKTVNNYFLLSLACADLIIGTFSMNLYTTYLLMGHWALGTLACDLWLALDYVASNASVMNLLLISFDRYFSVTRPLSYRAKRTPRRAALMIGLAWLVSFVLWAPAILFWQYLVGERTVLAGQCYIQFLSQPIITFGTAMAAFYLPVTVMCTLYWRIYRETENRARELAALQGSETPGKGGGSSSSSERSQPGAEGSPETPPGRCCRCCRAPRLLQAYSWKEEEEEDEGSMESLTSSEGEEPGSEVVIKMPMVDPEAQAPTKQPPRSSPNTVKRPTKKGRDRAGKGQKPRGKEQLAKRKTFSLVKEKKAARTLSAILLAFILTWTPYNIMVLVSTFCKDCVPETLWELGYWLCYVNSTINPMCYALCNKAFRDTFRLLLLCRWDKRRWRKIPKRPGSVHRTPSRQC
Protocol Description: BRET-based G protein dissociation assay
Type: cell-based
Assay Endpoint: EC50
Answer as a quantity: numeral, then unit.

Sample CCN(CC)C(=O)[C@@H]1C=C2c3cccc4[nH]c(Br)c(c34)C[C@H]2N(C)C1 [E559] , system: CHRM1 (M1 muscarinic receptor) (Homo sapiens). Its EC50 is 2.96 nM
